PROTOCOL_TEXT: NCI Yeast Anticancer Drug Screen. Data for the mlh1 rad18 strain (AID 175)
STATED_CONDITIONS: S. cerevisiae mlh1 rad18 strain growth inhibition; at 50.0 µM
The panel holds about 79,000 compounds, 15% with a hit somewhere; the sample as a whole holds those more often. Activity calls are given as the source filed them. Rule as the data show it: active = growth inhibition above about 70%; inactive = the rest.
Labels: Yes for active, No for inactive

[
  {
    "COMPOUND": "C[N+](C)(C)CC1CCC(C[N+](C)(C)C)C1=O (stereo unspecified)",
    "CLASS_LABEL": "No"
  },
  {
    "COMPOUND": "O=C(N/N=C/c1cc(Cl)cc(Cl)c1[O-])c1ccccc1O.O=C(N/N=C/c1cc(Cl)cc(Cl)c1[O-])c1ccccc1O.[Zn+2]",
    "CLASS_LABEL": "Yes"
  },
  {
    "COMPOUND": "C=CCOc1cc2c(ccc1=O)-c1c(cc(OC)c(OC)c1OC)CCC2NC(C)=O (stereo unspecified)",
    "CLASS_LABEL": "Yes"
  },
  {
    "COMPOUND": "CCOC(=O)C1=C(C(=O)OCC)C2(c3ccccc3)N(O1)c1ccccc1C2(C)C (stereo unspecified)",
    "CLASS_LABEL": "No"
  },
  {
    "COMPOUND": "O=C1OC2C(O1)C1(Cl)C(Cl)=C(Cl)C2(Cl)C1(Cl)Cl (stereo unspecified)",
    "CLASS_LABEL": "Yes"
  },
  {
    "COMPOUND": "CCCCN(CCCC)CCc1ccc(OC(=O)c2ccc(N)cc2)cc1",
    "CLASS_LABEL": "Yes"
  },
  {
    "COMPOUND": "CCCCN(CC)CC(C(C)=O)c1c(O)c2ccccc2oc1=O (stereo unspecified)",
    "CLASS_LABEL": "No"
  },
  {
    "COMPOUND": "CC(=O)C1C2c3ccccc3C(c3ccccc32)C1C (stereo unspecified)",
    "CLASS_LABEL": "No"
  },
  {
    "COMPOUND": "CN(C)C(=O)Oc1c(Cl)cc(Cl)c(Cl)c1Cl",
    "CLASS_LABEL": "No"
  },
  {
    "COMPOUND": "O=C1NC(=S)NC(=O)C1=C/C=C/c1ccccc1",
    "CLASS_LABEL": "No"
  },
  {
    "COMPOUND": "Cc1ccc([C@H]2N[C@@H]2c2ccccn2)cc1",
    "CLASS_LABEL": "No"
  }
]
